Caspase-3 induction, Normalized to Formula (III) (%) reference
system: B16 melanoma cells; assay: Caspase-3 activity assay (EnzChek Caspase-3 Assay Kit), caspase-3 induction in tumor cells; assay type: cell-based, mouse; settings: relative to compound of Formula (III); also: test concentration or dose not given here

O=C(NCc1ccccc1)c1ccc2nc(S)oc2c1	−17.7286%

The record that follows has no Caspase-3 induction, Normalized to Formula (III) (%) shown yet.
// Caspase-3 induction, Normalized to Formula (III) (%) value for CCN(C)C(=O)c1ccc2nc(C3CC3)oc2c1 : 33.9690%

---

test system: B16 melanoma cells; assay: Caspase-3 activity assay (EnzChek Caspase-3 Assay Kit), caspase-3 induction in tumor cells; type: cell-based, mouse; conditions: relative to compound of Formula (III); also: test concentration or dose not given here
readout name: Caspase-3 induction, Normalized to Formula (III) (%)
Report field: quantity (unit follows the number).

COc1cc(C(=O)NCCN(C)C)ccc1OCCC(C)C	6.8323%

// Caspase-3 induction, Normalized to Formula (III) (%) value for O=C(NCc1ccccc1)c1ccc2nc(C3CC3)oc2c1 : −32.882%

// Caspase-3 induction, Normalized to Formula (III) (%) value for CCN(C)C(=O)c1ccc2ocnc2c1 : −74.9828%

// Caspase-3 induction, Normalized to Formula (III) (%) value for CCOc1ccc(C(=O)N(C)CC)cc1O : −69.889%

// Caspase-3 induction, Normalized to Formula (III) (%) value for CCN(C)C(=O)c1ccc2oc(C)nc2c1 : −65.6678%

// Caspase-3 induction, Normalized to Formula (III) (%) value for COCCCNC(=O)c1cccc2oc(C)nc12 : −70.4086%

// Caspase-3 induction, Normalized to Formula (III) (%) value for COc1cc(C(=O)NCC2CCOC2)ccc1OC(C)C (stereo not drawn) : −2.673%

// Caspase-3 induction, Normalized to Formula (III) (%) value for COCCCNC(=O)c1cc2c(cc1O)OCO2 : −41.8942%

// Caspase-3 induction, Normalized to Formula (III) (%) value for COCCCNC(=O)c1ccc2nc(S)oc2c1 : 15.2459%

// Caspase-3 induction, Normalized to Formula (III) (%) value for COc1cc(Br)c(C(=O)NCC(C)C)cc1OC : −58.9646%

// Caspase-3 induction, Normalized to Formula (III) (%) value for COc1cc(Br)c(C(=O)NCC2CCOC2)cc1OC (stereo not drawn) : −2.142%

// Caspase-3 induction, Normalized to Formula (III) (%) value for CCN(C)C(=O)c1ccc2nc(C3CCCO3)oc2c1 (stereo not drawn) : 8.3538%

// Caspase-3 induction, Normalized to Formula (III) (%) value for CCN(C)C(=O)c1ccc2oc(=O)[nH]c2c1 : −21.7056%

// Caspase-3 induction, Normalized to Formula (III) (%) value for COc1cc(C(=O)NCc2ccccc2)cc(OC)c1O : −17.7065%

// Caspase-3 induction, Normalized to Formula (III) (%) value for COc1cc(Br)c(C(=O)NCCN(C)C)cc1OC : −70.1327%

// Caspase-3 induction, Normalized to Formula (III) (%) value for CCOc1ccc(C(=O)NCCCOC)cc1O : −35.6816%

// Caspase-3 induction, Normalized to Formula (III) (%) value for CCOc1ccc(C(=O)NCC2CCOC2)cc1O (stereo not drawn) : −24.9053%

// Caspase-3 induction, Normalized to Formula (III) (%) value for O=C(c1cc2c(cc1O)OCO2)N1CCCC1 : −35.7785%

// Caspase-3 induction, Normalized to Formula (III) (%) value for O=C(c1ccc2nc(S)oc2c1)N1CCCC1 : −30.7254%

// Caspase-3 induction, Normalized to Formula (III) (%) value for COCCCNC(=O)c1ccc2nc(C(F)(F)C(F)(F)F)oc2c1 : −23.2124%
